Target: T1, TRCW5 antigen (CD3δε-Fc-Avi) (biotinylated (site not stated))
T1 construct: also called recombinant CD3
T1 sequence (chain, as listed by the source mutant limits assumed): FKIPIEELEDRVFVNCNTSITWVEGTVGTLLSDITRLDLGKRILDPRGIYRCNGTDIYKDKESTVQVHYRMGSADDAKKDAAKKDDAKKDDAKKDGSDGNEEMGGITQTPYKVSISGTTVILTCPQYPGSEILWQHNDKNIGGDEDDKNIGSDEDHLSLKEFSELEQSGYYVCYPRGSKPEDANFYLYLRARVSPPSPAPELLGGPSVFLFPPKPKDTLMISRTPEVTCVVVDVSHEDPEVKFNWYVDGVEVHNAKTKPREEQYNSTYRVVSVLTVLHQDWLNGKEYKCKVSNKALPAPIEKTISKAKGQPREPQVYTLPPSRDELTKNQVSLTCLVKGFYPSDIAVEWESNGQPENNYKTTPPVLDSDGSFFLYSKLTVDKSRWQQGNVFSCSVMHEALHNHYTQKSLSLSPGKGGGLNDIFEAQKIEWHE
Assay: binding after heat
outcomeMeasure: % Retained 65° C. (%)
// return numeric value only (unit: %, not printed)

Example entries begin here.
- binder: "CD3B2030 N106H (scFv) scFv: QVQLVQSGAEVKKPGSSVKVSCKASGYTFTRSTMHWVKQAPGQGLEWIGYINPSSAYTNYNQKFQGRVTLTADKSTSTAYMELSSLRSEDTAVYYCASPQVHYDYHGFPYWGQGTLVTVSSGGSEGKSSGSGSESKSTGGSEIVLTQSPATLSASPGERVTLSCSASSSVSYMNWYQQKPGQAPRRWIYDSSKLASGVPARFSGSGSGRDYTLTISSLEPEDFAVYYCQQWSRNPPTFGGGTKVEIK"
  experimentalValue: 55.7
- binder: "CD3B2051 N106V (scFv) scFv: QVQLVQSGAEVKKPGSSVKVSCKASGYTFTRSTMHWVKQAPGQGLEWMGYINPSSAYTNYNQKFQGRVTLTADKSTSTAYMELSSLRSEDTAVYYCASPQVHYDYVGFPYWGQGTLVTVSSGGSEGKSSGSGSESKSTGGSEIVLTQSPATLSASPGERVTLSCSASSSVSYMNWYQQKPGQAPRRLIYDSSKLASGVPARFSGSGSGRDYTLTISSLEPEDFAVYYCQQWSRNPPTFGGGTKVEIK"
  experimentalValue: 0.7
- binder: "CD3B2030 N106K (scFv) scFv: QVQLVQSGAEVKKPGSSVKVSCKASGYTFTRSTMHWVKQAPGQGLEWIGYINPSSAYTNYNQKFQGRVTLTADKSTSTAYMELSSLRSEDTAVYYCASPQVHYDYKGFPYWGQGTLVTVSSGGSEGKSSGSGSESKSTGGSEIVLTQSPATLSASPGERVTLSCSASSSVSYMNWYQQKPGQAPRRWIYDSSKLASGVPARFSGSGSGRDYTLTISSLEPEDFAVYYCQQWSRNPPTFGGGTKVEIK"
  experimentalValue: 7.3
- binder: "CD3B2030 N106R (scFv) scFv: QVQLVQSGAEVKKPGSSVKVSCKASGYTFTRSTMHWVKQAPGQGLEWIGYINPSSAYTNYNQKFQGRVTLTADKSTSTAYMELSSLRSEDTAVYYCASPQVHYDYRGFPYWGQGTLVTVSSGGSEGKSSGSGSESKSTGGSEIVLTQSPATLSASPGERVTLSCSASSSVSYMNWYQQKPGQAPRRWIYDSSKLASGVPARFSGSGSGRDYTLTISSLEPEDFAVYYCQQWSRNPPTFGGGTKVEIK"
  experimentalValue: 53.8

# ---- query binder ----
Request the reported % Retained 65° C. associated with CD3B2051 N106P (scFv) scFv: QVQLVQSGAEVKKPGSSVKVSCKASGYTFTRSTMHWVKQAPGQGLEWMGYINPSSAYTNYNQKFQGRVTLTADKSTSTAYMELSSLRSEDTAVYYCASPQVHYDYPGFPYWGQGTLVTVSSGGSEGKSSGSGSESKSTGGSEIVLTQSPATLSASPGERVTLSCSASSSVSYMNWYQQKPGQAPRRLIYDSSKLASGVPARFSGSGSGRDYTLTISSLEPEDFAVYYCQQWSRNPPTFGGGTKVEIK
0.2

Each recorded value in this set is attributed to patent US20250145711A1.
